# credit: patent US10940139B2

- TARGET: KRas G12C/Q61H double mutant (Homo sapiens (Human), UniProt P01116, G12C/Q61H)
- Sequence (P01116-2 other isoform, or with tags, fused parts or gaps G12C/Q61H): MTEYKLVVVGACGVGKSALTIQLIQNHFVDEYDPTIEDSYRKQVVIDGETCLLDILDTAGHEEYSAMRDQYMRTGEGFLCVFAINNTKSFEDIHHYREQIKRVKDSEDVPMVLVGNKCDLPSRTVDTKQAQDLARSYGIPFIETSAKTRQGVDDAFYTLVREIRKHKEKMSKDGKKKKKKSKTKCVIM
- MEASUREMENT_PROTOCOL: Ras GTP binding domain inhibition assay (labeled GTP)
- CONDITION_PARAMETERS: 20 μM compound; KRas G12C/Q61H double mutant; read-out: % Inhibition at 20 μM of K-Ras mutant and wild-type protein, KRas G12C Q61H
// reported inhibition at 20 µM per item

Consider the reported inhibition at 20 µM for these molecules:
| MOLECULE | RESULT_VALUE |
| --- | --- |
| CC(C)c1nn(C)cc1-c1csc2c(O)nc(-c3ccccn3)nc12 [drawing 3501] | 51 to 75% |
| CCC(C)c1csc2c(OC)nc(-c3ccccn3)nc12 (centres unmarked) [drawing 3471] | 51 to 75% |

Requested field: inhibition at 20 µM. Item: Oc1nc(-c2ccccn2)nc2cc(-c3ccncc3)sc12 [drawing 3561]
25 to 50%

Requested field: inhibition at 20 µM. Item: Oc1nc(-c2ccccn2)nc2c(CC3CCCNC3)csc12 (centres unmarked) [drawing 3488]
51 to 75%

Requested field: inhibition at 20 µM. Item: COc1nc(-c2cn(C)cn2)nc2sc(-c3ccncc3)c(-c3ccccc3)c12 [drawing 3531]
1 to 25%
